These entries and their values trace back to patent US20260242735A1.

# Subject Of Test: human CD33 G172A (human, UniProt P20138 18-364)
# Sequence (P20138 18-364 G172A limits assumed): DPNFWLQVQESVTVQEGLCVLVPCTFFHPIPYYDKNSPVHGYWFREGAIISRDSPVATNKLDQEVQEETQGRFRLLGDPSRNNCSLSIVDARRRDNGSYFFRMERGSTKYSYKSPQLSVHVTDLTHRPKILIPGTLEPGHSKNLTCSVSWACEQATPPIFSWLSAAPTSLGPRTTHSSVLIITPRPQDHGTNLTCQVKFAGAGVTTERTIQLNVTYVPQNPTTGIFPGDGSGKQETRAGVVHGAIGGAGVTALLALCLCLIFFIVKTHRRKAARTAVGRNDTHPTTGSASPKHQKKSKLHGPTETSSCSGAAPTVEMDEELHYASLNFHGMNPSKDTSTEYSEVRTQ
# Test Name: alanine scan, flow cytometry, HEK293-T;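 also: antibody binding to each alanine-substituted CD33 mutant expressed transiently in HEK293-T, read as fluorescence minus background, mean of duplicates, relative to wild-type CD33 set as 100%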
Parameter: Mean % WT Binding (%)

INSERT INTO assay_data (binder, units_text, measurement) VALUES
  ('Refmab #3 (antibody, V domains shown, In the alanine scan antibodies were used as IgG or Fab) VH: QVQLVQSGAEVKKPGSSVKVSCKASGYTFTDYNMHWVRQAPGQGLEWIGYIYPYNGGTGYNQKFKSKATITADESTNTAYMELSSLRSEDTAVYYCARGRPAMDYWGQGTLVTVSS VL: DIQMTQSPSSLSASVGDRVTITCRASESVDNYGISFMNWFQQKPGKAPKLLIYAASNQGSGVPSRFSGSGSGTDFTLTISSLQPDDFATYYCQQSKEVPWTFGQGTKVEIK', '%', 107),
  ('Refmab #2 (antibody, V domains shown, In the alanine scan antibodies were used as IgG or Fab) VH: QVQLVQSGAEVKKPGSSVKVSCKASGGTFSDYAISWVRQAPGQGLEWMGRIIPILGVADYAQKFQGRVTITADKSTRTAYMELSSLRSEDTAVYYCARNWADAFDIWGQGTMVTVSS VL: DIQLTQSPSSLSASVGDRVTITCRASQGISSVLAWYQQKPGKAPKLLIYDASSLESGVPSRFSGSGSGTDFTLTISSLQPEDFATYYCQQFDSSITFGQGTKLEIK', '%', 109),
  ('Refmab #1 (antibody, V domains shown, In the alanine scan antibodies were used as IgG or Fab; also called hP67.6) VH: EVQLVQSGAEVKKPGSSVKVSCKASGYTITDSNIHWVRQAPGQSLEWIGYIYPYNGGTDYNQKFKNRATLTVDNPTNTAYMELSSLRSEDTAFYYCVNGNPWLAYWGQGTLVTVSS VL: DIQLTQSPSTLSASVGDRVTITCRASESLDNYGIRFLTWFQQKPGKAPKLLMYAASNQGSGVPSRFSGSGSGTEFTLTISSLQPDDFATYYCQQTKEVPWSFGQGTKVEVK', '%', 86),
  ('Refmab #4 (antibody, V domains shown, In the alanine scan antibodies were used as IgG or Fab) VH: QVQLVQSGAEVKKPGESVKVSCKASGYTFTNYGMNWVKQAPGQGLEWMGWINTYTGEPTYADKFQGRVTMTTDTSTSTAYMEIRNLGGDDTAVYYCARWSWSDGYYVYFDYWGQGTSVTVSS VL: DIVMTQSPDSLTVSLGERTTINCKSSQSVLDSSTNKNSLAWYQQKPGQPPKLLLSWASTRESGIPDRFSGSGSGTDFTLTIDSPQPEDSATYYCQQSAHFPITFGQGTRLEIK', '%', 90.7);
